Target: TLR7 (Homo sapiens, UniProt Q9NYK1)
Construct: human HEK-Blue cells co-expressing a TLR7 or TLR8 gene
Sequence (Q9NYK1 27-1049): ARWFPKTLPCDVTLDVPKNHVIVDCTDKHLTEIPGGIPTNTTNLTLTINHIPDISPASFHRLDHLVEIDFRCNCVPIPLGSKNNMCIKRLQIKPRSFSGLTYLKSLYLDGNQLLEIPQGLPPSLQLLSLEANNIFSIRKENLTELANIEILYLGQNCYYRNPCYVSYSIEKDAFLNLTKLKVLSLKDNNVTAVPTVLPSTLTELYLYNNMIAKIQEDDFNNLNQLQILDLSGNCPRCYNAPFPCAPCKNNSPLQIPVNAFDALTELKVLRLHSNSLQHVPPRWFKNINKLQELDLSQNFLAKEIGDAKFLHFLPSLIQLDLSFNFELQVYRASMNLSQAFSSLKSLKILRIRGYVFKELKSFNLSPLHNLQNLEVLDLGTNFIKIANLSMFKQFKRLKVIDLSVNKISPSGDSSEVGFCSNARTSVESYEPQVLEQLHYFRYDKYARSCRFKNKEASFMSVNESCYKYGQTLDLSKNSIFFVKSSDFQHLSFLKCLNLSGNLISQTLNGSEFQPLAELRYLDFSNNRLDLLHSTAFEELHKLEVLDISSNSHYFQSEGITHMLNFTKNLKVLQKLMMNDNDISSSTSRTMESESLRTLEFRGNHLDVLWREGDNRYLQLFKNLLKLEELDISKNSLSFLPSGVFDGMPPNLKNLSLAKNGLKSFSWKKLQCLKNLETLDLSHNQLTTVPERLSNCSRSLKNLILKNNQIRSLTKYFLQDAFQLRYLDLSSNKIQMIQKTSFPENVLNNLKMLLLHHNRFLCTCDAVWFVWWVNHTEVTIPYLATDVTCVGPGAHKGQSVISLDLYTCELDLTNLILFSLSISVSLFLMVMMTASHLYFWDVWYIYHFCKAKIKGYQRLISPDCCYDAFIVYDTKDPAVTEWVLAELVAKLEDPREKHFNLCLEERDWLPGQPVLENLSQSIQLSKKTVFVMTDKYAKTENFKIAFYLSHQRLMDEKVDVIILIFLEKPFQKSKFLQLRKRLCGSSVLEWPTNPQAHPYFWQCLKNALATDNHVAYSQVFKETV
Test: In vitro human TLR7 binding reporter assay (HEK-Blue, NF-kB/AP1-inducible SEAP)
Assay type: cell-based
Conditions: activity range class, read-out: TLR7 Agonist EC50

[
  {
    "compound": "Nc1nc2cc(-c3cc[nH]n3)ccc2c2cn(CCNCc3ccccn3)nc12",
    "EC50": "> 100 µM"
  },
  {
    "compound": "CC(O)Cn1cc2c(N)nc3cc(-c4ccn[nH]4)ccc3c2n1 (centres unmarked)",
    "EC50": "> 100 µM"
  },
  {
    "compound": "Nc1nc2cc(-c3cc[nH]n3)ccc2c2cn(CCNC(=O)c3ncc(Cl)cc3F)nc12",
    "EC50": "20 to 100 µM"
  },
  {
    "compound": "Nc1nc2cc(-c3cc[nH]n3)ccc2c2nn(C3CCC(O)C3)cc12 (centres unmarked) [Example 339]",
    "EC50": "> 100 µM"
  },
  {
    "compound": "Nc1nc2cc(-c3cc[nH]n3)ccc2c2cn(CCCOc3ccccc3F)nc12",
    "EC50": "> 100 µM"
  },
  {
    "compound": "Cc1cc(C)n(CCn2cc3c(n2)c(N)nc2cc(-c4cc[nH]n4)ccc23)n1",
    "EC50": "> 100 µM"
  },
  {
    "compound": "CN(C)CCCn1cc2c(n1)c(N)nc1cc(-c3cc[nH]n3)ccc12",
    "EC50": "20 to 100 µM"
  },
  {
    "compound": "Nc1nc2cc(-c3cc[nH]n3)ccc2c2nn([C@@H]3CC[C@H](O)C3)cc12 (relative stereo)",
    "EC50": "> 100 µM"
  }
]
